Assay: gradient 5% acetonitrile 3 min, to 50% in 2 min, to 85% in 15 min, held 3 min, 100 µL/min
Conditions: column: Zorbax Extend-C18 2.1 x 50 mm; eluents: water / acetonitrile, 0.1% formic acid
RECORDED_METRIC: RP-LC retention time (s)
Field format: number, assumed s, no unit text.

The measured RP-LC retention time associated with COc1ccc(NC(=O)C2CCN(c3cnc4nc(C)c(C)nc4c3)CC2)c(C)c1 reads 683

The measured RP-LC retention time associated with O=C(Cc1csc2nc(-c3ccccc3)cn12)Nc1ccccc1F reads 764

The measured RP-LC retention time associated with CCc1ccc(S(=O)(=O)N2CCC3(CC2)NCCN=C3NCc2cccc(F)c2)cc1 reads 772

The measured RP-LC retention time associated with CCOc1ccc(CC(=O)N2CCCC2c2c(C)noc2C)cc1 (centres undefined) reads 902

The measured RP-LC retention time associated with N#CC(c1ccccc1)C(C/C(=N\O)c1ccccc1)c1ccccc1 (centres undefined) reads 1090

The measured RP-LC retention time associated with Cn1ncc(N2CCCC(C(=O)NC3CCCCCC3)C2)cc1=O (centres undefined) reads 726

The measured RP-LC retention time associated with CCCN1C(=O)COc2ccc(-c3csc(NC(=O)C4CCCCC4)n3)cc21 reads 1100

The measured RP-LC retention time associated with CC(=O)Nc1ccc(NC(=O)C2CC(=O)N(CCc3c[nH]c4ccc(F)cc34)C2)cc1 (centres undefined) reads 675

The measured RP-LC retention time associated with Cc1oc(-c2[nH]ncc2C(=O)N(C)C)cc1S(=O)(=O)Nc1ccc(C(C)C)cc1 reads 770
